- test system: T1, OC43 S1B+C (S1B and S1C domains of the hCoV-OC43 spike glycoprotein) (human coronavirus OC43, UniProt P36334 321-675)
- T1 construct: also called recombinant OC43 S1B+C; recombinant OC43 protein; source: Expi293F, transfected, purified from supernatant (Ni-NTA IMAC, SEC); not shown: His6, C-terminal, cleaved
- T1 sequence (looked up): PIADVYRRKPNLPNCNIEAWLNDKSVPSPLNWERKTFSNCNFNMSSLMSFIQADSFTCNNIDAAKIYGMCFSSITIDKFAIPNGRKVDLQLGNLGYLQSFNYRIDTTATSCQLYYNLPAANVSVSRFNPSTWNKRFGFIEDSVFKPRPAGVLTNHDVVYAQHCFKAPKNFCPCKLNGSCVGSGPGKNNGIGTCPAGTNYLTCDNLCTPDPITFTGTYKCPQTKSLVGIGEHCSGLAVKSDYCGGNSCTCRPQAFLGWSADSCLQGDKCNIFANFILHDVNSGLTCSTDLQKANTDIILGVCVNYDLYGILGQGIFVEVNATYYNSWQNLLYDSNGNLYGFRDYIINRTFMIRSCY
- assay explanation: BLI
- setup conditions: both partners purified
quantity name: koff (s⁻¹)

>>> obs_value("WNb 294 (VHH) VHH: QVQLQESGGGLVQAGGSLRLSCAASGRTFSSYAMGWFRQAPGKEREFVAAISWSGGTTYYGDSVKGRFTISRDNAKNTVYLQMNSLKPEDTAVYYCAAQGDGGSWFPEGLADFGSWGQGTQVTVSS")
0.00106
>>> obs_value("WNb 276 (VHH) VHH: QVQLQESGGGLVQSGGSLRLSCAASGFTFSNYGMMWVRQAPGKGVEWVSRIDSDGTITLYKDSVKGRFTISRDNAKNMLYLQMESLKPEDTALYYCIKVMDWVPGRAPPFRGQGTQVTVSS")
0.000518
>>> obs_value("WNb 286 (VHH) VHH: QVQLQESGGGLVQAGGSLRLSCAASGRTFSSYAMGWFHQAPGKEREFVASISWSGGTTYYADSVKGRFTISRDNAKNTVYLQMNSLKPEDTAVYYCAAAVDYGLGLYRVGEYDSWGQGTQVTVSS")
0.00245
>>> obs_value("WNb 278 (VHH) VHH: QVQLQESGGGLVQAGGSLRLSCAASGRTFSDYFMGWFRQAPGMEREFVASISWSGGTTYYADSVKGRFTISRDNTKNTVYLQMNSLKPEDTAVYYCATAIDYGLGLTVEYEYDYWGQGTQVTVSS")
0.0004
>>> obs_value("WNb 282 (VHH) VHH: QVQLQESGGGLVQAGDSLRLSCAASGRTFSDYFMGWFRQAPGKEREFVASISWSGGTTYYADSVKGRFTISRDNAKNTVYLQMNRVKSEDTAVYYCAAARDMGWGRTGENEYDYWGQGTQVTVSS")
0.000195
>>> obs_value("WNb 296 (VHH) VHH: QVQLQESGGGLVQAGGSLRLSCAASGRTFSDYFMGWFRQAPGKEREFVASISWSGGTTYYADSVKGRFTISRDNANNTVYLQMNSLKPVDTAVYYCAAVADYGLGLTTSYEYDYWGQGTQVTVSS")
0.000786
>>> obs_value("WNb 281 (VHH) VHH: QVQLQESGGGLVQAGGSLRLSCAASGRTFSDYFMGWFRQAPGKEREFVTAISWSGGSTYYADSVKGRFTISRDNAKNTVFLQMNSLKPEDTAVYYCAAALDEGWARVAGPEYDYWGQGTQVTVSS")
0.000183
>>> obs_value("WNb 288 (VHH) VHH: QVQLQESGGGLVQAGGSLRLSCAASGRTFSDYFMGWFRQAPGKEREFVAAISWSGGSTYYADSVKGRSTISRDNAKNTVYLQMNSLKPEDTAVYYCAADHDRGWARLRLAEYDYWGQGTQVTVSS")
0.00124
